- Test system: BICR18 cells (laryngeal squamous cell carcinoma)
- Protocol: Alamar Blue cytotoxicity assay, BICR18
- Type: cell-based
- Test parameters: BICR18, 24 h of treatment; read-out: IC50 based on survival of cells
Readout kind: pIC50
Note on pIC50: it is the negative log10 of concentration, concentration in mol/L.

Known pIC50 results, listed for orientation:
q: Reported pIC50 for BICR18 cells (laryngeal squamous cell carcinoma), given CC(=O)N1C(=O)c2ccccc2C(=O)N(Cc2ccccc2)c2ccccc21 ?
a: 3.92

q: Reported pIC50 for BICR18 cells (laryngeal squamous cell carcinoma), given CN1C(=O)c2cc(Cl)c(Cl)cc2C(=O)Nc2ccccc21 ?
a: 3.57

Next compound, please.
q: Reported pIC50 for BICR18 cells (laryngeal squamous cell carcinoma), given CN1C(=O)c2c(Cl)c(Cl)c(Cl)c(Cl)c2C(=O)Nc2ccccc21 ?
a: 4.03

====

- Test system: HeLa cells (cervix adenocarcinoma)
- Protocol: Alamar Blue cytotoxicity assay, HeLa
- Type: cell-based
- Test parameters: Homo sapiens, 24 h of treatment, read-out: IC50 based on survival of cells
Entries and their measured IC50 follow.
Please state the figure in µM; there is no need to write the unit.

q: Reported IC50 for HeLa cells (cervix adenocarcinoma), given CN1C(=O)c2ccccc2C(=O)Nc2cc(Cl)c(Cl)cc21 [Compound 3f] ?
a: 298

q: Reported IC50 for HeLa cells (cervix adenocarcinoma), given CC(=O)N1C(=O)c2ccccc2C(=O)N(Cc2ccccc2)c2ccccc21 [Compound 3o] ?
a: 169

q: Reported IC50 for HeLa cells (cervix adenocarcinoma), given CCOC(=O)CN1C(=O)c2cc(Cl)c(Cl)cc2C(=O)N(C)c2ccccc21 [Compound 3n] ?
a: 311

q: Reported IC50 for HeLa cells (cervix adenocarcinoma), given CN1C(=O)c2c(Cl)c(Cl)c(Cl)c(Cl)c2C(=O)Nc2ccccc21 [Compound 3h] ?
a: 132

====

Entries and their measured melting point follow.

q: Give the measured melting point of O=C1Nc2ccc([N+](=O)[O-])cc2NC(=O)c2ccccc21 [Compound 3b] .
a: 230 °C (dec.)

q: Give the measured melting point of O=C1Nc2ccccc2NC(=O)c2cc([N+](=O)[O-])ccc21 [Compound 3d] .
a: 243 to 244 °C

q: Give the measured melting point of CN1C(=O)c2ccccc2C(=O)N(C)c2ccccc21 [Compound 3l] .
a: 265 to 266 °C

New cases:
q: Give the measured melting point of Nc1ccccc1N1C(=O)c2ccccc2C1=O [Compound 10, 2-(2-aminophenyl)isoindoline-1,3-dione] .
a: 195 to 196 °C

q: Give the measured melting point of O=C1CCC(=O)Nc2ccccc2N1 [Compound 6] .
a: 244 to 245 °C

q: Give the measured melting point of CN1C(=O)c2ccccc2C(=O)Nc2ccccc21 [Compound 3e] .
a: 206 to 207 °C

q: Give the measured melting point of O=C1Nc2ccccc2NC(=O)c2ccccc21 [Compound 3a] .
a: 286 to 287 °C

q: Give the measured melting point of CN1C(=O)c2cscc2C(=O)Nc2ccccc21 [Compound 3i] .
a: 241 to 242 °C

q: Give the measured melting point of O=C1Nc2ccccc2N(Cc2ccccc2)C(=O)c2ccccc21 [Compound 3j] .
a: 205 to 206 °C

q: Give the measured melting point of CCOC(=O)c1cc2c(cc1C(=O)OCC)C(=O)Nc1ccccc1NC2=O [Compound 3k] .
a: 242 to 243 °C

q: Give the measured melting point of CN(C)CCN1C(=O)c2ccccc2C(=O)N(Cc2ccccc2)c2ccccc21 [Compound 3m] .
a: 154 to 155 °C

q: Give the measured melting point of O=C(c1ccccc1)c1ccc2c(c1)NC(=O)c1ccccc1C(=O)N2 [Compound 3c] .
a: 156 to 157 °C

====

- System: BICR18 cells (laryngeal squamous cell carcinoma)
- Protocol: Alamar Blue cytotoxicity assay, BICR18
- Assay type: cell-based
- Test parameters: BICR18, 48 h, 300 µM; bracketed values; read-out: proliferation inhibition expressed as a percentage at highest concentration used
Readout kind: inhibition at 300 µM

q: Reported inhibition at 300 µM for BICR18 cells (laryngeal squamous cell carcinoma), given CN1C(=O)c2cc(Cl)c(Cl)cc2C(=O)Nc2ccccc21 ?
a: 12.3%

New cases:
q: Reported inhibition at 300 µM for BICR18 cells (laryngeal squamous cell carcinoma), given O=C1Nc2ccccc2N(Cc2ccccc2)C(=O)c2ccccc21 ?
a: 6.1%

q: Reported inhibition at 300 µM for BICR18 cells (laryngeal squamous cell carcinoma), given CN(C)CCN1C(=O)c2ccccc2C(=O)N(Cc2ccccc2)c2ccccc21 ?
a: 4.7%

q: Reported inhibition at 300 µM for BICR18 cells (laryngeal squamous cell carcinoma), given O=C1Nc2ccccc2NC(=O)c2cc([N+](=O)[O-])ccc21 ?
a: 2.5%

q: Reported inhibition at 300 µM for BICR18 cells (laryngeal squamous cell carcinoma), given CCOC(=O)c1cc2c(cc1C(=O)OCC)C(=O)Nc1ccccc1NC2=O ?
a: 5.6%

q: Reported inhibition at 300 µM for BICR18 cells (laryngeal squamous cell carcinoma), given CN1C(=O)c2ccccc2C(=O)Nc2cc(Cl)c(Cl)cc21 ?
a: 7.6%

====

- Test system: EUFA30 cells
- Protocol: Annexin V-FITC / propidium iodide flow cytometry, EUFA30
- Format: cell-based, human
- Test parameters: EUFA30, 200 µM, 24 h; non-treated control 0.3%
Returns one of Criterion met or Criterion not met; Criterion met when dead cell fraction: early apoptosis is >= 8%.

q: # check: dead cell fraction: early apoptosis of CN1C(=O)c2c(Cl)c(Cl)c(Cl)c(Cl)c2C(=O)Nc2ccccc21 [Compound 3h] is greater than or equal to 8%
a: Criterion met

q: # check: dead cell fraction: early apoptosis of CC(=O)N1C(=O)c2ccccc2C(=O)N(Cc2ccccc2)c2ccccc21 [Compound 3o] is greater than or equal to 8%
a: Criterion met

q: # check: dead cell fraction: early apoptosis of CN1C(=O)c2cc(Cl)c(Cl)cc2C(=O)Nc2ccccc21 [Compound 3g] is greater than or equal to 8%
a: Criterion not met

New cases:
q: # check: dead cell fraction: early apoptosis of CN1C(=O)c2ccccc2C(=O)Nc2cc(Cl)c(Cl)cc21 [Compound 3f] is greater than or equal to 8%
a: Criterion not met

====

Entries and their measured pIC50 follow.
- Test system: EUFA30 cells (non-cancerous human fibroblasts)
- Protocol: Alamar Blue cytotoxicity assay, EUFA30
- Assay type: cell-based
- Test parameters: Fibroblast, EUFA30, 24 h of treatment, read-out: IC50 based on survival of cells
Note on pIC50: it is the negative log10 of concentration, concentration in mol/L.

Known pIC50 results, listed for orientation:
q: Give the measured pIC50 of CN1C(=O)c2ccccc2C(=O)Nc2cc(Cl)c(Cl)cc21 .
a: 3.49

q: Give the measured pIC50 of CN1C(=O)c2c(Cl)c(Cl)c(Cl)c(Cl)c2C(=O)Nc2ccccc21 .
a: 3.84

Next compound, please.
q: Give the measured pIC50 of CC(=O)N1C(=O)c2ccccc2C(=O)N(Cc2ccccc2)c2ccccc21 .
a: 3.81
